# assay.target: dopamine (DA) reuptake in synaptosomes (Rattus norvegicus, UniProt P23977)
# Construct: in synaptosomes as described in WO 97/16451; from tissue
# Sequence (P23977 whole entry): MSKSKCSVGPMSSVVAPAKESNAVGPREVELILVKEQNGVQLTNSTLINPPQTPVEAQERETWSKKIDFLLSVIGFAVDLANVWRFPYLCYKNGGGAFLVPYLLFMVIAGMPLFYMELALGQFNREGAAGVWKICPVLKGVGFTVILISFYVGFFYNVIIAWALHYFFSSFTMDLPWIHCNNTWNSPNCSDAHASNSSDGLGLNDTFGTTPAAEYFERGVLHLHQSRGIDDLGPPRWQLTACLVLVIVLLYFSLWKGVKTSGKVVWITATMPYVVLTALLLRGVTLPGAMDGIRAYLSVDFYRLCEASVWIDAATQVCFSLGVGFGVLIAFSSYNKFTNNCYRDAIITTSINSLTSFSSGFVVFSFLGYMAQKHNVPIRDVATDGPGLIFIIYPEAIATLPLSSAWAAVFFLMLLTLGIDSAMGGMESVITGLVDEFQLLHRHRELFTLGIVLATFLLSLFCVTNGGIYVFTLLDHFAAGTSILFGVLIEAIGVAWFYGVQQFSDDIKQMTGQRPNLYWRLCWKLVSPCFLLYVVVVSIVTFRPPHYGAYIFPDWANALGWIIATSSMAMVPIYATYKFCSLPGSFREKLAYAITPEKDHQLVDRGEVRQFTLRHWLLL
# assay.procedure: Inhibition of DA reuptake in synaptosomes
# Type: biochemical
# condition.context: 3H-DA, read-out: DA-uptake IC50
# Experimental: A compound of the invention was tested for its ability to inhibit the reuptake of the monoamine neurotransmitters dopamine (DA) noradrenaline (NA) and serotonine (5-HT) in synaptosomes as described in WO 97/16451. The test values are given as IC50 (the concentration (μM) of the test substance which inhibits the specific binding of ^3H-DA, ^3H-NA, or ^3H-5-HT by 50%).
endpoint: IC50 (nM)
Field format: number, assumed nM, no unit text.

Data request: # input molecule: O=C(Oc1ccc(N=Nc2ccccc2)cc1)N1CCN2CCC1CC2 ; wanted: its IC50
Data returned: 32
